assay: High-throughput drug toxicity screening in the BPDCN cell line Gen2.2 (AID 1224824); details: Gen2.2 BPDCN cells; at 45.8 µM (top of the series);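 note: cells exposed to compounds for 48 h before reading; 100% = DMSO and 0% = bortezomib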
For each record, write down the corresponding cell viability, % of control (lower = more cytotoxic).
One number for each entry, in %.

Some molecules with known cell viability, % of control (lower = more cytotoxic) results, for comparison:
molecule	readoutValue
Cc1cccc(C)c1NC(=O)CN1CCCC1=O	116
COC1(CS(=O)c2ccccc2)CCN(CCc2c[nH]c3ccc(F)cc23)CC1 (stereo not drawn)	66.1

May I ask what cell viability, % of control (lower = more cytotoxic) has been recorded for COc1ccc(C(CN(C)C)C2(O)CCCCC2)cc1 (stereo not drawn) ? 171

* * *

settings: Ebola virus entry assay, blue channel fluorescence
Activity calls are given as the source filed them.
assayEndpoint: outcome

compound	outcome
Cc1ccc(NC(=O)c2ccc(CN3CCN(C)CC3)cc2)cc1Nc1nccc(-c2cccnc2)n1	inactive
CCOc1ccc2ccccc2c1C(=O)N[C@@H]1C(=O)N2[C@@H]1SC(C)(C)[C@@H]2C(=O)O	inactive
Cc1oncc1C(=O)Nc1ccc(C(F)(F)F)cc1	inactive
CCC(C)(C)C(=O)O[C@H]1C[C@@H](C)C=C2C=C[C@H](C)[C@H](CC[C@@H]3C[C@@H](O)CC(=O)O3)[C@H]21	inactive

Okay, now this compound:
May I ask what outcome has been recorded for Cc1cc(C)cc(OCC2CNC(=O)O2)c1 (stereo not given) ? inactive

* * *

test system: TAB109; assay: qHTS profiling for inhibitors of Plasmodium falciparum proliferation (AID 504749);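 note: 0% = DMSO vehicle and full inhibition = artemisinin control; nearly all actives have a fitted effect of over 60% in size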; conditions: P. falciparum in erythrocytes, SYBR Green DNA, 72 h; series mostly up to 28.7 µM
Records with an inconclusive call do not appear. Calls of active or inactive are those of the source. Calls follow the shape of the dose curve; as a rule, active = well fitted inhibition curve with a large enough effect; inconclusive = small, poorly fitted or top-dose-only effect; inactive = flat fitted curve, though single readings scatter.
assayEndpoint: outcome

CCN(C(C)=O)c1cccc(-c2ccnc3c(C#N)cnn23)c1 inactive
OCCOc1ccccc1 inactive
CC[C@@H](CO)NC(=O)[C@@H]1C=C2c3cccc4[nH]cc(c34)C[C@H]2N(C)C1 inactive

* * *

assay: HTS Assay for Allosteric Antagonists of the Human D2 Dopamine Receptor: Hit Validation in HTRF (AID 624455); details: Cells stably expressing D1 dopamine receptor, inhibition mode; series mostly up to 46.1 µM;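 note: stable D1 dopamine receptor cell line scored for blocking the D1 response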
Records with an inconclusive call do not appear. Calls of active or inactive are those of the source. Calls follow the shape of the dose curve; as a rule, active = well fitted inhibition curve with a large enough effect; inconclusive = small, poorly fitted or top-dose-only effect; inactive = no such curve, though single readings can be large or run the other way.
// classify into 1 (active), 0 (inactive)

compound	qualitativeLabel
CCCC(C)(COC(N)=O)COC(=O)NC(C)C (stereo not drawn)	0
CCC1(C2=NCCN2)Cc2ccccc2O1 (stereo not drawn)	0
N#CC(C#N)=Cc1ccc(O)c(O)c1	0
Cc1ccc(S(=O)(=O)N[C@@H](CCCCN)C(=O)CCl)cc1	0
O=c1[nH]c2ccccc2n1C1CCN(CCCC(c2ccc(F)cc2)c2ccc(F)cc2)CC1	0

Short answer needed: outcome of this test for CC(C)=CCOc1c2occc2cc2ccc(=O)oc12 ? 0

Short answer needed: outcome of this test for CC[C@@H](CO)NC(=O)[C@@H]1C=C2c3cccc4[nH]cc(c34)C[C@H]2N(C)C1 ? 1

Short answer needed: outcome of this test for CC(=O)[C@H]1CC[C@H]2[C@@H]3CC[C@H]4C[C@](C)(O)CC[C@]4(C)[C@H]3CC[C@]12C ? 0

* * *

test: qHTS for small molecule inhibitors of Yes1 kinase: Counter Assay (AID 686950); settings: series mostly up to 76.9 µM;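 note: no kinase present so only ADP-Glo detection of a fixed ADP amount is tested; luminescence from ADP-Glo reporting ADP in a fixed ATP and ADP mixture; 0% = DMSO wells with ATP plus ADP and -100% = ATP-only wells without ADP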
Activity calls are given as the source filed them. The call rests on the fitted dose curve; in most records, active means well fitted curve in the direction sought with a large enough effect; inactive means no such curve, though single readings can be large or run the other way.

molecule	outcome
COc1ccc(C(=O)c2c(C)n(CCN3CCOCC3)c3ccccc23)cc1	inactive
C[C@@H]1[C@@H](CC(C[C@H]2O[C@@H]3O[C@]4(C)CC[C@@H]5[C@H](C)CC[C@@H]([C@H]2C)[C@@]35OO4)C[S+](=O)([O-])c2ccc(COC(=O)N(C)C)cc2)O[C@@H]2O[C@]3(C)CC[C@H]4[C@H](C)CC[C@@H]1[C@@]24OO3 (stereo partly drawn)	inactive
CNC(=O)c1ccc(N2C(=S)N(c3ccc(C#N)c(C(F)(F)F)c3)C(=O)C23CCC3)cc1F	inactive

* * *

assay: Primary qHTS to identify inhibitors of SARS-CoV-2 cell entry (AID 1645846); settings: SARS-CoV-2 pseudovirus cell entry assay, luminescence; series mostly up to 57.1 µM; note: nearly all actives have a fitted effect of over 45% in size
Records with an inconclusive call do not appear. Activity calls are given as the source filed them. The call rests on the fitted dose curve.
// classify into active, inactive

Please review the entries below; each comes with its answer.
molecule	qualitativeLabel
CCCN[C@H]1CCc2nc(N)sc2C1	inactive
Cc1ncc(CNC(=O)N(CCCl)N=O)c(N)n1	inactive
O[C@@H](CNC[C@H](O)[C@H]1CCc2cc(F)ccc2O1)[C@@H]1CCc2cc(F)ccc2O1	active
NS(=O)(=O)c1cc2c(cc1Cl)NC=NS2(=O)=O	inactive
CC(C)NCC(O)c1ccc(O)c(O)c1 (configuration not stated)	inactive

Short answer needed: outcome of this test for Cc1ccc(S(=O)(=O)NC(=O)NN2CC3CCCC3C2)cc1 (configuration not stated) ? inactive

Short answer needed: outcome of this test for CC(C)=CC1C(C(=O)OCc2cccc(Oc3ccccc3)c2)C1(C)C (configuration not stated) ? inactive

Short answer needed: outcome of this test for Cc1c(OCC(F)(F)F)ccnc1CS(=O)c1nc2ccccc2[nH]1 (configuration not stated) ? inactive

Short answer needed: outcome of this test for Cn1cc[nH]c1=S ? inactive

Short answer needed: outcome of this test for Cc1cccc(Nc2ccncc2S(=O)(=O)NC(=O)NC(C)C)c1 ? inactive

Short answer needed: outcome of this test for CC(C)(C(=O)O)c1ccc(C(O)CCCN2CCC(C(O)(c3ccccc3)c3ccccc3)CC2)cc1 (configuration not stated) ? inactive

Short answer needed: outcome of this test for Cc1oncc1C(=O)Nc1ccc(C(F)(F)F)cc1 ? inactive

* * *

Experiment: Quantitative High-Throughput drug screen in 47 multiple myeloma cell lines against the NCATS MIPE library collection: KMS12PE_JCRB cell viability assay (AID 1918972); note: nearly all actives have a fitted effect of over 30% in size;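 for viability: 100% = DMSO only wells and 0% = wells with media alone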
Conditions: KMS12PE myeloma viability, CellTiter-Glo ATP, 48 h; series mostly up to 45.8 µM
Excerpt: PI: Beverly A. Mock Ph.D. Laboratory of Cancer Biology and Genetics, Center for Cancer Research, National Cancer Institute, National Institute of Health, Bethesda, Maryland […] 5; Detector; 425V; Luminescence; Viewlux PerkinElmer. […] 1. […] Briefly, the corresponding myeloma cell lines were screened in 1,536-well plates with 500 cells, 5-uL per well for inhibition of cell viability (assessed by measuring ATP levels with CellTiterGlo). […]
Records with an inconclusive call do not appear. The source made the active and inactive calls. The call rests on the fitted dose curve; in most records, active means well fitted cell-killing curve with a large enough effect; inconclusive means small, poorly fitted or top-dose-only effect, or effect the other way; inactive means no such curve, though single readings can be large or run the other way.
// classify into active, inactive

Please review the entries below; each comes with its answer.
molecule	qualitativeLabel
CNC(=O)N1N=C(c2ccc(N)cc2)c2cc3c(cc2CC1C)OCO3 (stereo not drawn)	active
Cn1c(CCCC(=O)O)nc2cc(N(CCCl)CCCl)ccc21	inactive

Short answer needed: outcome of this test for Cc1cc(SCc2sc(-c3ccc(C(F)(F)F)c(F)c3)nc2C)ccc1OCC(=O)O ? active

Short answer needed: outcome of this test for CN(C)[C@@H]1C(=O)C(C(N)=O)=C(O)[C@@]2(O)C(=O)C3=C(O)c4c(O)cccc4[C@@](C)(O)[C@H]3C[C@@H]12 ? inactive

Short answer needed: outcome of this test for CC(O)(CS(=O)(=O)c1ccc(F)cc1)C(=O)Nc1ccc(C#N)c(C(F)(F)F)c1 (stereo not drawn) ? active

Short answer needed: outcome of this test for C[C@@H]1[C@@H](C(=O)C[C@H]2O[C@@H]3O[C@]4(C)CC[C@@H]5[C@H](C)CC[C@@H]([C@H]2C)[C@@]35OO4)O[C@@H]2O[C@]3(C)CC[C@H]4[C@H](C)CC[C@@H]1[C@@]24OO3 ? active

Short answer needed: outcome of this test for O=c1[nH]c2ccccc2n1CCCN1CCC(n2c(=O)[nH]c3cc(Cl)ccc32)CC1 ? active

Short answer needed: outcome of this test for CN1CCN(C(=O)O[C@H]2c3nccnc3C(=O)N2c2ccc(Cl)cn2)CC1 ? inactive

* * *

experiment: Drug repurposing screens with cells derived from glioblastoma tumor samples (AID 1345199); settings: GBM patient neurospheres viability, ATP luminescence, 48 h; at 46 µM (top of the series); tumour line A; note: % is set by controls: 0 for no effect and ±100 for the full control effect; nearly all actives have a fitted effect of over 40% in size
Records with an inconclusive call do not appear.
Checkbox rule: activity, negative = cell killing lower than -20% = Fulfilled; activity, negative = cell killing not lower than -20% = Not fulfilled.

Please review the entries below; each comes with its answer.
compound	qualitativeLabel
CN1CCN(C(=O)O[C@H]2c3nccnc3C(=O)N2c2ccc(Cl)cn2)CC1	Fulfilled
OCCOc1ccccc1	Not fulfilled
Cc1ncc(CNC(=O)N(CCCl)N=O)c(N)n1	Fulfilled
CC[C@@H](CO)NC(=O)[C@@H]1C=C2c3cccc4[nH]cc(c34)C[C@H]2N(C)C1	Not fulfilled
CC[N+](CC)(CC)CC	Fulfilled
NCC(CC(=O)O)c1ccc(Cl)cc1 (stereo not drawn)	Fulfilled
C#CCN(C)[C@H](C)Cc1ccccc1	Fulfilled
NN=C(N)N	Not fulfilled
CCC(C(N)=O)N1CCCC1=O (stereo not drawn)	Fulfilled
Nc1ccncc1	Fulfilled

Consider Cc1ccc(-c2nc3ccc(C)cn3c2CC(=O)N(C)C)cc1 . Does its activity, negative = cell killing lie strictly below -20%? Fulfilled

Consider Cc1cccc(C)c1NC(=O)CN1CCCC1=O . Does its activity, negative = cell killing lie strictly below -20%? Fulfilled
